# ID50 [60 min; μmol/l] per record follows
Study system: prolyl hydroxylase (Homo sapiens)
Sequence (P13674 18-534): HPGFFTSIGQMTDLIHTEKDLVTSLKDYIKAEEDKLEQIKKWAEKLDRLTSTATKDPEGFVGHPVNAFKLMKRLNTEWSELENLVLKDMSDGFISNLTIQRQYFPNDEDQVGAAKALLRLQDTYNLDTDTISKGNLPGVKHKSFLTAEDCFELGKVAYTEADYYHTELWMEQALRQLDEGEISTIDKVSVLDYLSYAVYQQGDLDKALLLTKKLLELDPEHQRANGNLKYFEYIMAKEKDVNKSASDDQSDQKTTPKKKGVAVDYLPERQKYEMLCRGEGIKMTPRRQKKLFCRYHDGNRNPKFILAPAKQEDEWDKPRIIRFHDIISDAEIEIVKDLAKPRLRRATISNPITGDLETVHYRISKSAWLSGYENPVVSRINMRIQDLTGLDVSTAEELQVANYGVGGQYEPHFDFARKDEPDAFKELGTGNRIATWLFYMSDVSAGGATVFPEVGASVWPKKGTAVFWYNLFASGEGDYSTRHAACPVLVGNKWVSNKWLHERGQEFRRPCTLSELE
Sequence (P07237 18-508 partner): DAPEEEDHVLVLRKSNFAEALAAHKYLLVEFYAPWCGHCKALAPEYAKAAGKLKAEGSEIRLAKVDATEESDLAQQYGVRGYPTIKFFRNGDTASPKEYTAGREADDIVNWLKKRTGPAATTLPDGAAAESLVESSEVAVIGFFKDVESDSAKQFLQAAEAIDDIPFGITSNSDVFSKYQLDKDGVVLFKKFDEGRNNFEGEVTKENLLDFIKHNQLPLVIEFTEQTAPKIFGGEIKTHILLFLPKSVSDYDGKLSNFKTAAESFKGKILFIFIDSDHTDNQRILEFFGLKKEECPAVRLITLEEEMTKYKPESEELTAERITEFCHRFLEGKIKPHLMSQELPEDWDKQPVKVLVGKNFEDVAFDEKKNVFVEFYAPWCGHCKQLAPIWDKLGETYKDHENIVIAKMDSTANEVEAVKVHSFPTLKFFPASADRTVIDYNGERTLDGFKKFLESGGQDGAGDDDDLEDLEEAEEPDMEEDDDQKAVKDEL
Procedure details: prolyl hydroxylase enzyme assay with preincubation (suicide inhibition)
Type: biochemical
Condition set: concentration which inactivates 50% of the enzyme after one hour; preincubation with iron(II) ions, α-ketoglutarate and ascorbate
Test readout: ID50 [60 min; μmol/l] (µmol/L)

Compound: CS(=O)(=O)CCOC(=O)NC(CCC(=O)OCc1ccccc1)C(=O)N1OCCC1C(=O)NCC(=O)OCc1ccccc1 (stereo not drawn) [Msc--Glu(OBzl)--Opr--Gly--OBzl]
Test readout: ID50 [60 min; μmol/l]
Reported result: 30.0

Compound: CC(NC(=O)OCc1ccccc1)C(=O)N1OCCC1C(=O)NCC(=O)O (stereo not drawn) [Z--Ala--Opr--Gly--OH]
Test readout: ID50 [60 min; μmol/l]
Reported result: 330.0

Compound: C[C@H](NC(=O)OCc1ccccc1)C(=O)N1OCCC1C(=O)NCC(=O)OCc1ccccc1 (stereo partly drawn) [Z--Ala--Opr--Gly--OBzl]
Test readout: ID50 [60 min; μmol/l]
Reported result: 3.0

Compound: CC(=O)N1CCCC1C(=O)N1OCCC1C(=O)NCC(=O)NCCc1ccccc1 (stereo not drawn) [Ac--Pro--Opr--Gly--NH--CH2 --CH2 --C6 H5]
Test readout: ID50 [60 min; μmol/l]
Reported result: 4900.0

Compound: CC(NC(=O)OCc1ccccc1)C(=O)N1OCCC1C(=O)NCC(=O)OC(C)(C)C (stereo not drawn) [Z--Ala--Opr--Gly--OtBu, Z--Ala--Opr--Gly--OtBU]
Test readout: ID50 [60 min; μmol/l]
Reported result: 40.0

Compound: O=C(CNC(=O)C1CCON1C(=O)C(Cc1ccc(O)cc1)NC(=O)OCc1ccccc1)OCc1ccccc1 (stereo not drawn) [Z--Tyr--Opr--Gly--OBzl]
Test readout: ID50 [60 min; μmol/l]
Reported result: 2.4
